Assay: PhoP-dependent GFP reporter repression – Salmonella Typhimurium, primary screen (AID 1863);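 further: 0% = low Mg2+ inducing control and 100% = high Mg2+ repressing control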
Conditions: S. Typhimurium PhoP-regulated promoter GFP reporter, 4 h; at 50 µM; stronger effect = higher value
Out of some 300,000 compounds screened, about 480 (0.16%) were called active. Only a sample is shown. Entries with a potency or affinity are not part of this list.
OBSERVED_PROPERTY: inhibition (%)
The reply should contain only the number, in %.

Example molecules with recorded inhibition:
| MOLECULE | UNITS_OF_MEASURE | REPORTED_VALUE |
| --- | --- | --- |
| CCCNC(=O)Nc1ccc(F)c(Cl)c1 | % | -2.59 |
| CC(=O)c1ccc(OCc2cc(C(=O)N3CCN4CCCC4C3)no2)cc1 (stereo not drawn) | % | -1.66 |

Per the record, `Cc1onc(-c2ccccc2)c1C(=O)NC(=S)NNC(=O)c1ccccc1O` has inhibition of 18.4
